B1: minF1; the commonest letter at each place (parent)
chain: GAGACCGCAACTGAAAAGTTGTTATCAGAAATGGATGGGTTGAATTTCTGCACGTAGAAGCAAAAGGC

Variants of: B1
protocolNotes: fraction ligated after 30 min (ligated reads / total reads); higher = more ligase activity
experimentalConditions: with F1*subA RNA substrate (template-directed ligation), 42 °C
fraction ligated class ranges: LOW (below 0.008), MID (0.008 to below 0.06), HIGH (0.06 or more)

recordSequence	classification
GAGACCGCAACTGAAAAGTTGTGATCAGAAATGGATGGGTTGCATTTCTGCACGTAGAAGCAAAAGGC [T23G A43C]	HIGH
GAGACCGCAACTGAAAAGTTGTTCTCAGAAATGGATGGGTTCAATTTCTGCACGTAGAAGCAAAAGGC [A24C G42C]	LOW
GAGACCGCAACTGAAAAGTTGTTATCAGGAATGGATGGGTTGAATTTCTGCACGTAGAAGCAAAAGGC [A29G]	HIGH
GAGACCGCAACTGAAAAGTTGTCATCAGAAGTGGATGGGTTGAATTTCTGCACGTAGAAGCAAAAGGC [T23C A31G]	HIGH
GAGACCGCAACTGAAAAGTTGTGAGCAGAAATGGATGGGTTGAATTTCTGCACGTAGAAGCAAAAGGC [T23G T25G]	HIGH

Band for GAGACCGCAACTGAAAAGTTGTTATCAGAAATGCACGGGTTGAATTTCTGCACGTAGAAGCAAAAGGC [G34C T36C] ? LOW

Further, for GAGACCGCAACTGAAAAGTTGTTATCAGTAATCGATGGGTTGAATTTCTGCACGTAGAAGCAAAAGGC [A29T G33C] ? HIGH

Further, for GAGACCGCAACTGAAAAGTTGTTATCAGAAATCGATGGGTTGAGTTTCTGCACGTAGAAGCAAAAGGC [G33C A44G] ? HIGH

Further, for GAGACCGCAACTGAAAAGTTGTTATCAGAGACGGATGGGTTGAATTTCTGCACGTAGAAGCAAAAGGC [A30G T32C] ? MID

Further, for GAGACCGCAACTGAAAAGTTGTTGTCAGATATGGATGGGTTGAATTTCTGCACGTAGAAGCAAAAGGC [A24G A30T] ? MID

Further, for GAGACCGCAACTGAAAAGTTGTTATAACAAATGGATGGGTTGAATTTCTGCACGTAGAAGCAAAAGGC [C26A G28C] ? HIGH

Further, for GAGACCGCAACTGAAAAGTTGTTACCAGAAATGGATGGGTTGTATTTCTGCACGTAGAAGCAAAAGGC [T25C A43T] ? LOW

Further, for GAGACCGCAACTGAAAAGTTGTTATCACAAAAGGATGGGTTGAATTTCTGCACGTAGAAGCAAAAGGC [G28C T32A] ? MID

Further, for GAGACCGCAACTGAAAAGTTGTTATCAGAAAAGGATGGGTTGCATTTCTGCACGTAGAAGCAAAAGGC [T32A A43C] ? MID

Further, for GAGACCGCAACTGAAAAGTTGTTATCAACAATGGATGGGTTGAATTTCTGCACGTAGAAGCAAAAGGC [G28A A29C] ? HIGH
